Test system: SNB-19
Assay remarks: NCI tumour cell line growth inhibition, 48 h
Calls of active or inactive are those of the source. Cut-off read from the data, not from the text of the source: active = GI50 up to about 1.1 µM and inactive = higher.
Reported values of GI50 for individual entries

GI50 for "Cc1cc(C)c(C(=O)/C=C/c2ccccc2)c(C)c1" is 28.5 µM (inactive)

GI50 for "FC1CCN(C2(c3cccs3)CCCCC2)CC1" is > 100 µM (inactive)

GI50 for "CN(C)C(=O)/N=c1\ss/c(=N\C(=S)N(C)C)n1-c1ccccc1" is 35.6 µM (inactive)

----------
Test system: UACC-257
Assay remarks: NCI tumour cell line growth inhibition, 48 h
The source made the active and inactive calls. Cut-off read from the data, not from the text of the source: active = GI50 up to about 1.1 µM and inactive = higher. *1 amine or outer side, *2 acyl side, *3 side chain or, on linkers, in order; H or OH if unused. Where a SMILES comes first, the peptide text is derived from it. Bridges are numbered along the chain shown (N, C = ends). Roman numbers before positions name the chains, in order. [ ]: non-standard residue; d: D form. Actinocin(1to9) = Cc1c2oc3c(C)ccc(C(=O)[*:2])c3nc-2c(C(=O)[*:1])c(N)c1=O; NMeV = CN[CH](C(=O)O)C(C)C; Sar = CNCC(=O)O
Pick from active, inactive when you respond.

# Molecule, Assigned class
data = [
    ("CC(C)N(C(=O)C12C3C4C5C3C1(C#N)C5C42)C(C)C (configuration not stated)", "inactive"),
]

Enquiry: State the result this test recorded for CC1(C)C2CCC3(OCCO3)C1C1OC12 (configuration not stated) .
Return: inactive

Enquiry: State the result this test recorded for "O=C1OC(c2ccc(O)cc2)(c2ccc(O)cc2)c2ccc(Cl)c3cccc1c23.O=C1OC(c2ccc(O)cc2)(c2ccc(O)cc2)c2cccc3c(Cl)ccc1c23" .
Return: inactive

Enquiry: State the result this test recorded for "O=c1c2ccccc2[nH]c(=S)n1-c1ccc(/N=N/c2cccc3cc(O)ccc23)cc1" .
Return: inactive

Enquiry: State the result this test recorded for CSC1NC(c2ccc(Cl)cc2)=C(C#N)C(=O)N1C1OCC(OC(C)=O)C(OC(C)=O)C1OC(C)=O (configuration not stated) .
Return: inactive

Enquiry: State the result this test recorded for COc1ccc(CC2NC(=O)C(NC(=O)c3c4nc5c(C(=O)NC6C(=O)NC(Cc7ccc(OC)cc7)C(=O)N7CCCC7C(=O)N(C)CC(=O)N(C)C(C(C)C)C(=O)OC6C)ccc(C)c5oc-4c(C)c(=O)c3N)C(C)OC(=O)C(C(C)C)N(C)C(=O)CN(C)C(=O)C3CCCN3C2=O)cc1 (configuration not stated) (I: TY(Me)P[Sar][NMeV] / II: TY(Me)P[Sar][NMeV]; ester I:1-I:C, II:1-II:C; linker I:N-II:N via Actinocin(1to9); configuration not given here) .
Return: active

Enquiry: State the result this test recorded for CC(=O)c1cccc(NC(=O)C(=O)C(C(=O)c2ccccc2F)C2OC(=O)c3ccccc32)c1 (configuration not stated) .
Return: inactive
